# Tested on: Plasmodium berghei
# procedure.details: Luciferase/luciferin-expressing antifolate-resistant parasites were used to infect a culture of HepG2 cells that were pre-incubated with compounds. Infected hepatocytes emit light due to the luciferase reaction. Assay results are presented as the percent inhibition of light emission compared to control. […]
# Type: functional
# condition.set: sporozoite, HEPG2TOX_HILL_SLOPE 0.135, HEPG2TOX_R_SQUARED 0.194, read-out: LUCIFERASE INFECTION ASSAY - IC50
assay.metric: IC50

>>> print(df.to_string())
                                   molecule  assay_metric  reading
0  Cc1ccc(C)c(NC(=O)C(OC(=O)c2c3c(nc4ccccc24)CCN(C)C3)c2ccccc2)c1 (stereo unspecified)          IC50  > 10 µM

###

# Tested on: Plasmodium berghei
# procedure.details: Luciferase/luciferin-expressing antifolate-resistant parasites were used to infect a culture of HepG2 cells that were pre-incubated with compounds. Infected hepatocytes emit light due to the luciferase reaction. Assay results are presented as the percent inhibition of light emission compared to control. […]
# Assay type: functional
# condition.set: sporozoite, HEPG2TOX_HILL_SLOPE 1.63, HEPG2TOX_R_SQUARED 0.918, read-out: LUCIFERASE INFECTION ASSAY - IC50
pIC50: −log10 of the molar value.
assay.metric: pIC50

>>> print(df.to_string())
                            compound_smiles  assay_metric  reading
0  CC(C)n1ncc2cc(C(=O)Nc3nc(-c4cccnc4)cs3)cnc21         pIC50   < 5.00

###

# Test system: Plasmodium berghei
# procedure.details: Luciferase/luciferin-expressing antifolate-resistant parasites were used to infect a culture of HepG2 cells that were pre-incubated with compounds. Infected hepatocytes emit light due to the luciferase reaction. Assay results are presented as the percent inhibition of light emission compared to control. […]
# Assay type: functional
# condition.set: sporozoite, HEPG2TOX_HILL_SLOPE 4.77, HEPG2TOX_R_SQUARED 0.804, PBLUC_HILL_SLOPE 25.8, PBLUC_R_SQUARED 0.401, read-out: LUCIFERASE INFECTION ASSAY - IC50
assay.metric: IC50 (µM)

In [3]: df
Out[3]:
                            compound_smiles  assay_metric  reading
0  O=C(Nc1nccs1)c1cc(-c2ccccc2)c(C(F)(F)F)s1          IC50     7.96

###

# System: Plasmodium berghei
# procedure.details: Luciferase/luciferin-expressing antifolate-resistant parasites were used to infect a culture of HepG2 cells that were pre-incubated with compounds. Infected hepatocytes emit light due to the luciferase reaction. Assay results are presented as the percent inhibition of light emission compared to control. […]
# Type: functional
# condition.set: sporozoite, HEPG2TOX_HILL_SLOPE 14.2, HEPG2TOX_R_SQUARED 0.936, PBLUC_HILL_SLOPE 3.67, PBLUC_R_SQUARED 0.0328, read-out: LUCIFERASE INFECTION ASSAY - IC50
assay.metric: IC50 (µM)

>>> df
                            compound_smiles  endpoint_unit  reading
0  O=C(Nc1nc(-c2ccc3c(c2)CCC3)cs1)c1ccc(CSc2nnc[nH]2)cc1             µM     6.58

###

# Test system: Plasmodium berghei
# procedure.details: Luciferase/luciferin-expressing antifolate-resistant parasites were used to infect a culture of HepG2 cells that were pre-incubated with compounds. Infected hepatocytes emit light due to the luciferase reaction. Assay results are presented as the percent inhibition of light emission compared to control. […]
# Format: functional
# condition.set: sporozoite, HEPG2TOX_HILL_SLOPE 7.33, HEPG2TOX_R_SQUARED 0.474, PBLUC_HILL_SLOPE 9.13, PBLUC_R_SQUARED 0.72, read-out: LUCIFERASE INFECTION ASSAY - IC50
pIC50: −log10 of the molar value.
assay.metric: pIC50

>>> print(df.to_string())
                                   compound       target_system  reading
0  CCOC(=O)c1sc2nc(CSc3ccccc3)nc(NCC(O)CN(C)C)c2c1C (stereo unspecified)  Plasmodium berghei     5.04

###

# Test system: Plasmodium berghei
# procedure.details: Luciferase/luciferin-expressing antifolate-resistant parasites were used to infect a culture of HepG2 cells that were pre-incubated with compounds. Infected hepatocytes emit light due to the luciferase reaction. Assay results are presented as the percent inhibition of light emission compared to control. […]
# Format: functional
# condition.set: sporozoite, HEPG2TOX_HILL_SLOPE 0.716, HEPG2TOX_R_SQUARED 0.978, PBLUC_HILL_SLOPE 1, PBLUC_R_SQUARED 0.535, read-out: LUCIFERASE INFECTION ASSAY - IC50
assay.metric: IC50 (µM)

>>> print(df.to_string())
                            compound_smiles  reading
0  CC(=O)Nc1cccc(-c2ccc3ncc(-c4ccccc4)n3n2)c1     3.87

###

# System: Plasmodium berghei
# procedure.details: Luciferase/luciferin-expressing antifolate-resistant parasites were used to infect a culture of HepG2 cells that were pre-incubated with compounds. Infected hepatocytes emit light due to the luciferase reaction. Assay results are presented as the percent inhibition of light emission compared to control. […]
# Format: functional
# condition.set: sporozoite, HEPG2TOX_HILL_SLOPE 16.6, HEPG2TOX_R_SQUARED 0.479, read-out: LUCIFERASE INFECTION ASSAY - IC50
pIC50: −log10 of the molar value.
assay.metric: pIC50

>>> print(df.to_string())
                            compound_smiles  assay_metric  reading
0  COc1cc2c(cc1NC(=O)Cn1cnc(C#N)n1)oc1ccccc12         pIC50   < 5.00

###

List of IC90 values.
# System: Plasmodium berghei
# procedure.details: Luciferase/luciferin-expressing antifolate-resistant parasites were used to infect a culture of HepG2 cells that were pre-incubated with compounds. Infected hepatocytes emit light due to the luciferase reaction. Assay results are presented as the percent inhibition of light emission compared to control. […]
# Assay type: functional
# condition.set: sporozoite, read-out: LUCIFERASE INFECTION ASSAY - IC90
assay.metric: IC90

                            compound_smiles  reading
0  C(=N\c1nc2ccccc2nc1N1CCOCC1)/N1CCN(C(c2ccccc2)c2ccccc2)CC1  > 10 µM
1  O=C(CN(Cc1ccccc1)S(=O)(=O)c1ccc(Cl)cc1)Nc1nnc(C(F)(F)F)s1  3.96 µM
2  CC(C)CCn1c(Sc2ccc3nnnn3n2)nc2scc(-c3cccs3)c2c1=O  > 10 µM
3  COc1ccc(CNC(=O)Cn2ncc(Cl)c(Cl)c2=O)cc1OC  > 10 µM
4  CC(=O)Nc1ccc(NC(=O)C2=COC3=NC(=O)N(Cc4ccccc4C)CCN23)cc1  > 10 µM

###

# Test system: Plasmodium berghei
# procedure.details: Luciferase/luciferin-expressing antifolate-resistant parasites were used to infect a culture of HepG2 cells that were pre-incubated with compounds. Infected hepatocytes emit light due to the luciferase reaction. Assay results are presented as the percent inhibition of light emission compared to control. […]
# Assay type: functional
# condition.set: sporozoite, PBLUC_HILL_SLOPE 4.52, PBLUC_R_SQUARED 0.531, read-out: LUCIFERASE INFECTION ASSAY - IC50
pIC50: −log10 of the molar value.
assay.metric: pIC50

                                   molecule  assay_metric  reading
0  CCOc1cc(C2NCC(c3ccccc3)c3c2[nH]c2ccccc32)ccc1OCC(C)C (stereo unspecified)         pIC50     5.21

###

# Tested on: Plasmodium berghei
# procedure.details: Luciferase/luciferin-expressing antifolate-resistant parasites were used to infect a culture of HepG2 cells that were pre-incubated with compounds. Infected hepatocytes emit light due to the luciferase reaction. Assay results are presented as the percent inhibition of light emission compared to control. […]
# Assay type: functional
# condition.set: sporozoite, PBLUC_HILL_SLOPE 0.666, PBLUC_R_SQUARED 0.147, read-out: LUCIFERASE INFECTION ASSAY - IC50
assay.metric: IC50

                       compound_smiles       target_system  reading
0  Cn1c(C=C2NC(c3cnccn3)=NO2)n[nH]c1=S  Plasmodium berghei  > 12 µM

###

# Tested on: Plasmodium berghei
# procedure.details: Luciferase/luciferin-expressing antifolate-resistant parasites were used to infect a culture of HepG2 cells that were pre-incubated with compounds. Infected hepatocytes emit light due to the luciferase reaction. Assay results are presented as the percent inhibition of light emission compared to control. […]
# Format: functional
# condition.set: sporozoite, FFLUC_HILL_SLOPE 2.39, FFLUC_R_SQUARED 0.815, read-out: LUCIFERASE INFECTION ASSAY - IC50
assay.metric: IC50

In [3]: df
Out[3]:
                            compound_smiles    reading
0  COC(=O)c1ccc(/C=C2\Oc3cc(O)cc(C)c3C2=O)cc1  > 10.6 µM
